Tested on: 616215-338-R-J1-PDC complex spheroid viability;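 also: spheroids exposed to compounds for one week before readout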
Assay: Anticancer human tumor 616215-338-R-J1-PDC patient-derived colon adenocarcinoma cell line growth inhibition [POLQ]
Details: second compound 1 µM; first compound 0.316 µM; active compounds read low
Mark t for viability, T/C under 90%, f if at or over.

The examples below pair each entry with its known result.
>  <molecule>
Nc1ccn(C2OC(CO)C(O)C2(F)F)c(=O)n1 (stereo unspecified) + COC1C(OC(N)=O)C(O)C(Oc2ccc3c(O)c(NC(=O)c4ccc(O)c(CC=C(C)C)c4)c(=O)oc3c2C)OC1(C)C

>  <groupLabel>
t

$$$$
>  <molecule>
O=C(Nc1ccc(O)c(NS(=O)(=O)c2ccc(F)cc2)c1)c1ccc(-c2ccccc2)cc1 + Cc1cccc(N(C)C(=O)C2C(O)CCN2c2nc(C)cc(C(F)(F)F)c2C#N)c1

>  <groupLabel>
f

$$$$
>  <molecule>
COc1cc(C2c3cc4c(cc3C(OC3OC5COC(C)OC5C(O)C3O)C3COC(=O)C23)OCO4)cc(OC)c1O (stereo unspecified) + Nc1ccc(C#CCN(C(=O)Cc2ncc(C(F)(F)F)cc2C(F)(F)F)c2ccc(F)cc2)nn1

>  <groupLabel>
t

$$$$

Is viability, T/C strictly under 90% for the entry CC1COCCN1c1cc(C2(O)CC3CCC(C2)O3)c2cnn(-c3ccn[nH]3)c2n1 (stereo unspecified) + Nc1ccc(C#CCN(C(=O)Cc2ncc(C(F)(F)F)cc2C(F)(F)F)c2ccc(F)cc2)nn1 ? t

Take the molecule COc1cc2cc(C(=O)CCC(=O)O)sc2cc1OC + COC1C(OC(N)=O)C(O)C(Oc2ccc3c(O)c(NC(=O)c4ccc(O)c(CC=C(C)C)c4)c(=O)oc3c2C)OC1(C)C and say whether its viability, T/C is less than 90%. f

Field: below-cutoff. Rule: recorded viability, T/C strictly less than 90%. Subject: C=CC(=O)N1CCN(c2nc(=O)n(-c3c(C)ccnc3C(C)C)c3nc(-c4c(O)cccc4F)c(F)cc23)C(C)C1 (stereo unspecified) + Nc1ccc(C#CCN(C(=O)Cc2ncc(C(F)(F)F)cc2C(F)(F)F)c2ccc(F)cc2)nn1 f
